- STUDY TARGET: Cathepsin D (Homo sapiens)
REPORTED ENDPOINT: IC50

>>> value_reported("C[C@H](O)CNC(=N)NC(=O)Cn1c(-c2ccccc2)ccc1C12CC3CC(CC(C3)C1)C2")
"54.1 µM"
>>> value_reported("N/C(=N/C(=O)Cn1c(-c2ccccc2)ccc1C12CC3CC(CC(C3)C1)C2)NCCc1cccs1")
"0.476 µM"
>>> value_reported("N/C(=N/C(=O)Cn1c(-c2ccccc2)ccc1C12CC3CC(CC(C3)C1)C2)NCCO")
"24.7 µM"

* * *

Each entry below carries its measured log10 IC50, system: Cathepsin D (Homo sapiens, UniProt P07339).
Sequence (P07339 65-162 limits assumed): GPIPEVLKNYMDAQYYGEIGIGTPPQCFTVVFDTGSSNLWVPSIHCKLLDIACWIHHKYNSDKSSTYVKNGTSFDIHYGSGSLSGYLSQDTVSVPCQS
Sequence (P07339 169-412 limits assumed): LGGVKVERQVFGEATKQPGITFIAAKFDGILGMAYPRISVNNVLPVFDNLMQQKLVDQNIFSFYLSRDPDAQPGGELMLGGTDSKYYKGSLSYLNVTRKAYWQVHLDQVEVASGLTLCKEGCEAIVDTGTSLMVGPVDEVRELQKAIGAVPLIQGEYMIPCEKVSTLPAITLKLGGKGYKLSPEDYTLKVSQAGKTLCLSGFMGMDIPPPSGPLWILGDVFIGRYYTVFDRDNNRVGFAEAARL
REPORTED ENDPOINT: log10 IC50 (log10 of the value in µM)

>>> value_reported("N=C(NCC(O)CO)NC(=O)Cn1c(-c2ccccc2)ccc1C12CC3CC(CC(C3)C1)C2 (centres undefined)")
1.87
>>> value_reported("C[C@@H](O)CN/C(N)=N\\C(=O)Cn1c(-c2ccccc2)ccc1C12CC3CC(CC(C3)C1)C2")
1.10
>>> value_reported("N=C(NC(=O)Cn1c(-c2ccccc2)ccc1C12CC3CC(CC(C3)C1)C2)NC1CCCCC1")
1.73
>>> value_reported("N#CCCCNC(=N)NC(=O)Cn1c(-c2ccccc2)ccc1C12CC3CC(CC(C3)C1)C2")
0.63
>>> value_reported("Cc1nnc(CN/C(N)=N\\C(=O)Cn2c(-c3ccccc3)ccc2C23CC4CC(CC(C4)C2)C3)o1")
0.48
>>> value_reported("NC(N)=NC(=O)Cn1c(-c2ccccc2)ccc1C12CC3CC(CC(C3)C1)C2")
1.40
>>> value_reported("N/C(=N/C(=O)Cn1c(-c2ccccc2)ccc1C12CC3CC(CC(C3)C1)C2)NCCCO")
1.30
>>> value_reported("N#CCCN/C(N)=N\\C(=O)Cn1c(-c2ccccc2)ccc1C12CC3CC(CC(C3)C1)C2")
1.09

* * *

- EXPERIMENTAL DETAILS: Selectivity for BACE1 over cathepsin D
Some compounds, each annotated with its measured Ratio IC50.
REPORTED ENDPOINT: Ratio IC50

>>> value_reported("CCCOc1ccc(-c2ccc(-c3ccccc3Cl)n2CC(=O)/N=C(/N)NCc2cccs2)cc1")
0.7
>>> value_reported("CCCOc1ccc(-c2ccc(-c3ccccc3Cl)n2CC(=O)/N=C(/N)NCc2ccc(F)c(F)c2F)cc1")
0.5
>>> value_reported("N#CCCCN/C(N)=N\\C(=O)Cn1c(-c2ccccc2)ccc1C12CC3CC(CC(C3)C1)C2")
17
>>> value_reported("N#CCCN/C(N)=N\\C(=O)Cn1c(-c2ccccc2)ccc1C12CC3CC(CC(C3)C1)C2")
39
>>> value_reported("N/C(=N/C(=O)Cn1c(-c2ccccc2)ccc1C12CC3CC(CC(C3)C1)C2)NCCCO")
83
>>> value_reported("N/C(=N/C(=O)Cn1c(-c2ccccc2)ccc1C12CC3CC(CC(C3)C1)C2)NCCO")
36
>>> value_reported("CCCOc1ccc(-c2ccc(-c3ccccc3Cl)n2CC(=O)/N=C(/N)NCCCC(=O)O)cc1")
45
>>> value_reported("CCCOc1ccc(-c2ccc(-c3ccccc3Cl)n2CC(=O)/N=C(/N)NCC(C)(C)CO)cc1")
15
>>> value_reported("N/C(=N/C(=O)Cn1c(-c2ccccc2)ccc1C12CC3CC(CC(C3)C1)C2)NCC(O)CO (stereo not drawn)")
137
>>> value_reported("N/C(=N/C(=O)Cn1c(-c2ccccc2)ccc1C12CC3CC(CC(C3)C1)C2)NCCCCO")
25
>>> value_reported("N/C(=N/C(=O)Cn1c(-c2ccccc2)ccc1C12CC3CC(CC(C3)C1)C2)NC1CCCCC1")
7.5
>>> value_reported("CCCOc1ccc(-c2ccc(-c3ccccc3Cl)n2CC(=O)/N=C(/N)N[C@H]2CC[C@H](O)CC2)cc1")
110
>>> value_reported("C[C@H](O)CN/C(N)=N\\C(=O)Cn1c(-c2ccccc2)ccc1C12CC3CC(CC(C3)C1)C2")
57
>>> value_reported("CCCOc1ccc(-c2ccc(-c3ccccc3Cl)n2CC(=O)/N=C(/N)N[C@H]2CC[C@H](C(=O)O)CC2)cc1")
7.3
>>> value_reported("N/C(=N/C(=O)Cn1c(-c2ccccc2)ccc1C12CC3CC(CC(C3)C1)C2)NCc1cccc(N)c1")
1.9
>>> value_reported("C[C@@H](O)CN/C(N)=N\\C(=O)Cn1c(-c2ccccc2)ccc1C12CC3CC(CC(C3)C1)C2")
28
>>> value_reported("CCCOc1ccc(-c2ccc(-c3ccccc3Cl)n2CC(=O)/N=C(/N)NCCCO)cc1")
85
>>> value_reported("CCCOc1ccc(-c2ccc(-c3ccccc3Cl)n2CC(=O)/N=C(/N)NCCCn2ccnc2)cc1")
30
>>> value_reported("CCCOc1ccc(-c2ccc(-c3ccccc3Cl)n2CC(=O)/N=C(/N)NCCC2OCCO2)cc1")
13
>>> value_reported("CCCOc1ccc(-c2ccc(-c3ccccc3Cl)n2CC(=O)/N=C(/N)NCCCC(N)=O)cc1")
70
>>> value_reported("CCCOc1ccc(-c2ccc(-c3ccccc3Cl)n2CC(=O)/N=C(/N)NCCCSC)cc1")
3.9
>>> value_reported("CCCOc1ccc(-c2ccc(-c3ccccc3Cl)n2CC(=O)/N=C(/N)NCc2ccc(O)c(OC)c2)cc1")
1
>>> value_reported("CCCOc1ccc(-c2ccc(-c3ccccc3Cl)n2CC(=O)/N=C(/N)NCc2ccco2)cc1")
2.5
>>> value_reported("NC(N)=NC(=O)Cn1c(-c2ccccc2)ccc1C12CC3CC(CC(C3)C1)C2")
69
>>> value_reported("CCCOc1ccc(-c2ccc(-c3ccccc3Cl)n2CC(=O)/N=C(/N)NCC(O)CO)cc1 (stereo not drawn)")
81
>>> value_reported("CCCOc1ccc(-c2ccc(-c3ccccc3Cl)n2CC(=O)/N=C(/N)NCCC(N)=O)cc1")
55

* * *

- STUDY TARGET: Beta-secretase 1 (Homo sapiens)
- Sequence (P56817 whole entry): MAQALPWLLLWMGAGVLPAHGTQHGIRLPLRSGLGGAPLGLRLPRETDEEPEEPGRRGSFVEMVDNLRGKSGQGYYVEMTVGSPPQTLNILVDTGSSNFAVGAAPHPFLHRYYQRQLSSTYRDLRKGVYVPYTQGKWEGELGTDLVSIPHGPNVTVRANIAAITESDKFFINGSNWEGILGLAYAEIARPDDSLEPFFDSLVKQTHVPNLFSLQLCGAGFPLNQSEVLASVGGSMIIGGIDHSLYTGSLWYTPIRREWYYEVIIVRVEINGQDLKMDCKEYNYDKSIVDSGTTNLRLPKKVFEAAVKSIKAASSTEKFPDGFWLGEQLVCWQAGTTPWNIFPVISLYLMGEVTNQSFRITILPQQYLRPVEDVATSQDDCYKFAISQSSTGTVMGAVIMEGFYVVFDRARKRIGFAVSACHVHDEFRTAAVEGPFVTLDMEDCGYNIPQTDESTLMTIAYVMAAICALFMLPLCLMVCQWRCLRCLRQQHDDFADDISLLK
- CONDITION SUMMARY: CHO
// assign condition met if ED50 falls strictly below 4 µM, else condition not met (ties count as condition not met)

>>> class("CCCOc1ccc(-c2ccc(-c3ccccc3Cl)n2CC(=O)/N=C(/N)NCc2ccc(O)c(OC)c2)cc1")
"condition not met"
>>> class("CCCOc1ccc(-c2ccc(-c3ccccc3Cl)n2CC(=O)/N=C(/N)N[C@H]2CC[C@H](C(=O)O)CC2)cc1")
"condition not met"
>>> class("N/C(=N/C(=O)Cn1c(-c2ccccc2)ccc1C12CC3CC(CC(C3)C1)C2)NCC(O)CO (stereo not drawn)")
"condition not met"
>>> class("N/C(=N/C(=O)Cn1c(-c2ccccc2)ccc1C12CC3CC(CC(C3)C1)C2)NCCO")
"condition met"
>>> class("N/C(=N/C(=O)Cn1c(-c2ccccc2)ccc1C12CC3CC(CC(C3)C1)C2)NCCCO")
"condition met"
>>> class("CCCOc1ccc(-c2ccc(-c3ccccc3Cl)n2CC(=O)/N=C(/N)NCCCO)cc1")
"condition met"
>>> class("N/C(=N/C(=O)Cn1c(-c2ccccc2)ccc1C12CC3CC(CC(C3)C1)C2)NC1CCCCC1")
"condition not met"
>>> class("CCCOc1ccc(-c2ccc(-c3ccccc3Cl)n2CC(=O)/N=C(/N)NCCCSC)cc1")
"condition met"
>>> class("N/C(=N/C(=O)Cn1c(-c2ccccc2)ccc1C12CC3CC(CC(C3)C1)C2)NCc1cccc(N)c1")
"condition not met"
>>> class("N/C(=N/C(=O)Cn1c(-c2ccccc2)ccc1C12CC3CC(CC(C3)C1)C2)NCCCCO")
"condition not met"
>>> class("N/C(=N/C(=O)Cn1c(-c2ccccc2)ccc1C12CC3CC(CC(C3)C1)C2)NCCc1ccsc1")
"condition met"
>>> class("N#CCCN/C(N)=N\\C(=O)Cn1c(-c2ccccc2)ccc1C12CC3CC(CC(C3)C1)C2")
"condition met"
>>> class("C[C@H](O)CN/C(N)=N\\C(=O)Cn1c(-c2ccccc2)ccc1C12CC3CC(CC(C3)C1)C2")
"condition not met"
>>> class("CCCOc1ccc(-c2ccc(-c3ccccc3Cl)n2CC(=O)/N=C(/N)NCCCC(N)=O)cc1")
"condition not met"
>>> class("Cc1nnc(CN/C(N)=N\\C(=O)Cn2c(-c3ccccc3)ccc2C23CC4CC(CC(C4)C2)C3)o1")
"condition not met"
>>> class("CCCOc1ccc(-c2ccc(-c3ccccc3Cl)n2CC(=O)/N=C(/N)NCC(O)CO)cc1 (stereo not drawn)")
"condition not met"
>>> class("N/C(=N/C(=O)Cn1c(-c2ccccc2)ccc1C12CC3CC(CC(C3)C1)C2)NCCc1cccs1")
"condition met"

* * *

- STUDY TARGET: Beta-secretase 1 (Homo sapiens)
pIC50: −log10 of the molar value.
REPORTED ENDPOINT: pIC50

>>> value_reported("CCCOc1ccc(-c2ccc(-c3ccccc3Cl)n2CC(=O)NC(=N)NCc2ccc(F)c(F)c2F)cc1")
6.69
>>> value_reported("CCCOc1ccc(-c2ccc(-c3ccccc3Cl)n2CC(=O)/N=C(/N)NCCCn2ccnc2)cc1")
6.62
>>> value_reported("CCCOc1ccc(-c2ccc(-c3ccccc3Cl)n2CC(=O)/N=C(/N)NCc2ccc(O)c(OC)c2)cc1")
6.19
>>> value_reported("CCCOc1ccc(-c2ccc(-c3ccccc3Cl)n2CC(=O)/N=C(/N)NCC(O)CO)cc1 (stereo not drawn)")
6.91
>>> value_reported("C[C@@H](O)CN/C(N)=N\\C(=O)Cn1c(-c2ccccc2)ccc1C12CC3CC(CC(C3)C1)C2")
6.36
>>> value_reported("N#CCCN/C(N)=N\\C(=O)Cn1c(-c2ccccc2)ccc1C12CC3CC(CC(C3)C1)C2")
6.51
>>> value_reported("CCCOc1ccc(-c2ccc(-c3ccccc3Cl)n2CC(=O)/N=C(/N)NCCCSC)cc1")
6.49
>>> value_reported("CCCOc1ccc(-c2ccc(-c3ccccc3Cl)n2CC(=O)/N=C(/N)NCc2cccs2)cc1")
6.12
>>> value_reported("CCCOc1ccc(-c2ccc(-c3ccccc3Cl)n2CC(=O)/N=C(/N)NCCC2OCCO2)cc1")
6.57
>>> value_reported("N/C(=N/C(=O)Cn1c(-c2ccccc2)ccc1C12CC3CC(CC(C3)C1)C2)N[C@H]1CC[C@H](O)CC1")
6.55
>>> value_reported("CCCOc1ccc(-c2ccc(-c3ccccc3Cl)n2CC(=O)NC(=N)NCCC(=O)O)cc1")
6.56
>>> value_reported("CCCOc1ccc(-c2ccc(-c3ccccc3Cl)n2CC(=O)NC(=N)NCCCO)cc1")
6.92
>>> value_reported("N/C(=N/C(=O)Cn1c(-c2ccccc2)ccc1C12CC3CC(CC(C3)C1)C2)NCCO")
6.17
>>> value_reported("N=C(NCCCn1ccnc1)NC(=O)Cn1c(-c2ccccc2)ccc1C12CC3CC(CC(C3)C1)C2")
5.77
>>> value_reported("CCCOc1ccc(-c2ccc(-c3ccccc3Cl)n2CC(=O)NC(=N)NCc2ccco2)cc1")
6.25
>>> value_reported("CCCOc1ccc(-c2ccc(-c3ccccc3Cl)n2CC(=O)/N=C(/N)N[C@H]2CC[C@H](C(=O)O)CC2)cc1")
7.11
>>> value_reported("N=C(NCc1cccc(N)c1)NC(=O)Cn1c(-c2ccccc2)ccc1C12CC3CC(CC(C3)C1)C2")
6.13
>>> value_reported("CCCOc1ccc(-c2ccc(-c3ccccc3Cl)n2CC(=O)/N=C(/N)NCCCC(=O)O)cc1")
6.89
